- target: Streptococcus pneumoniae aspartate semialdehyde dehydrogenase (spASADH) (Streptococcus pneumoniae, UniProt Q8DQ00)
- Construct: homodimer from general knowledge
- Sequence (Q8DQ00 1-358): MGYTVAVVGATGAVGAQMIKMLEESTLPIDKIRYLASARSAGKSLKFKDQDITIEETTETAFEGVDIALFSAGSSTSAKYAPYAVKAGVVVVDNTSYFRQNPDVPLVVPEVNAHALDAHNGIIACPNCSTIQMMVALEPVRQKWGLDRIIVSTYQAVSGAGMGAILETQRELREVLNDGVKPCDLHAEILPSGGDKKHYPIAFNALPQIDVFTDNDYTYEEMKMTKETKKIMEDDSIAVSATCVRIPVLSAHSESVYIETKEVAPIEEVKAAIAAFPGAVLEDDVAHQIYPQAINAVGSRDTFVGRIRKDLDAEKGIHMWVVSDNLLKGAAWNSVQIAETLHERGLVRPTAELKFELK
- assayProcedure: spASADH kinetic assay: reverse direction, NADPH absorbance at 340 nm; Ki from Dixon plot assuming competitive inhibition against ASA
- Assay type: biochemical
- testConditions: FIG. 4, Table 1; pH 8.6, r.t., 0.15 mM ASA, 1.5 mM NADP, 20 mM phosphate
Entries and their Ki values follow.
Entry rule: numbers only, all in µM.

>>> df
                               recordsmiles  propertyname  reported
0  O=C(O)CN(Cc1ccccc1)Cc1ccc(C(=O)O)c(C(=O)O)c1            Ki       297
1  C[C@H](NCc1ccc(C(=O)O)c(C(=O)O)c1)C(=O)O            Ki       296
2   C=CCN(CC(=O)O)Cc1ccc(C(=O)O)c(C(=O)O)c1            Ki       303

// switching to the query compound
Q: Could you share which Ki value was measured for CN(CC(=O)O)Cc1ccc(C(=O)O)c(C(=O)O)c1 ?
Ans: 296

###

- target: Vibrio cholerae aspartate semialdehyde dehydrogenase (vcASADH)
- assayProcedure: vcASADH kinetic assay: reverse direction, NADPH absorbance at 340 nm; Ki from Dixon plot assuming competitive inhibition against ASA
- Type: biochemical
- testConditions: FIG. 5, Table 2; pH 8.6, r.t., 0.3 mM ASA, 1.5 mM NADP, 20 mM phosphate
propertyName: pKi
# pKi is unitless: minus log10 of the molar concentration; print number only

Here is how some molecules turned out for pKi.
>>> df
                               recordsmiles  reported
0  Cc1ccccc1CN(CC(=O)O)Cc1ccc(C(=O)O)c(C(=O)O)c1      3.14
1  O=C(O)CN(Cc1cccc(OC(F)(F)F)c1)Cc1ccc(C(=O)O)c(C(=O)O)c1      3.16
2  O=C(O)CN(Cc1cccc(C(F)(F)F)c1)Cc1ccc(C(=O)O)c(C(=O)O)c1      3.17
3  O=C(O)CN(Cc1ccc(OC(F)(F)F)cc1)Cc1ccc(C(=O)O)c(C(=O)O)c1      3.18
4  O=C(O)CN(Cc1ccc(C(=O)O)c(C(=O)O)c1)Cc1ccccc1Br      3.13
5  O=C(O)CN(Cc1ccc(C(=O)O)cc1)Cc1ccc(C(=O)O)c(C(=O)O)c1      3.20

// switching to the query molecule
Q: For the record O=C(O)CN(Cc1ccc(C(=O)O)c(C(=O)O)c1)Cc1ccccc1C(F)(F)F , what value of pKi is listed for Vibrio cholerae aspartate semialdehyde dehydrogenase (vcASADH)?
Ans: 3.14
